- TARGET OR SYSTEM: Superoxide dismutase [Cu-Zn] (Homo sapiens)
- METHOD SUMMARY: inhibition of CuZn-SOD in human erythrocytes at 125 uM
- Type: cell-based

- SMILES REPRESENTATION: "c1ccc2cc3c(NCCCn4ccnc4)nnc(NCCCn4ccnc4)c3cc2c1"
  inhibition, %: 18
- SMILES REPRESENTATION: "Clc1nnc(NCCCn2ccnc2)c2cc3ccccc3cc12"
  inhibition, %: 27
- SMILES REPRESENTATION: "c1ccc2cc3c(NCCc4c[nH]cn4)nnc(NCCc4c[nH]cn4)c3cc2c1"
  inhibition, %: 6
- SMILES REPRESENTATION: "Clc1nnc(NCCc2c[nH]cn2)c2cc3ccccc3cc12"
  inhibition, %: 11

* * *

- Tested on: Trypanosoma cruzi
- METHOD SUMMARY: Inhibition of Iron superoxide dismutase in Trypanosoma cruzi epimastigotes at 25 uM
The following compounds are shown together with reported inhibition values.

- SMILES REPRESENTATION: "c1ccc2cc3c(NCCCn4ccnc4)nnc(NCCCn4ccnc4)c3cc2c1"
  inhibition: "42%"
- SMILES REPRESENTATION: "c1ccc2cc3c(NCCc4c[nH]cn4)nnc(NCCc4c[nH]cn4)c3cc2c1"
  inhibition: "53%"
- SMILES REPRESENTATION: "Clc1nnc(NCCCn2ccnc2)c2cc3ccccc3cc12"
  inhibition: "93%"
- SMILES REPRESENTATION: "Clc1nnc(NCCc2c[nH]cn2)c2cc3ccccc3cc12"
  inhibition: "91%"

* * *

- Tested on: Trypanosoma cruzi
- METHOD SUMMARY: Inhibition of Iron superoxide dismutase in Trypanosoma cruzi epimastigotes at 2.5 uM

- SMILES REPRESENTATION: "Clc1nnc(NCCCn2ccnc2)c2cc3ccccc3cc12"
  inhibition [%]: 80
- SMILES REPRESENTATION: "c1ccc2cc3c(NCCc4c[nH]cn4)nnc(NCCc4c[nH]cn4)c3cc2c1"
  inhibition [%]: 46
- SMILES REPRESENTATION: "c1ccc2cc3c(NCCCn4ccnc4)nnc(NCCCn4ccnc4)c3cc2c1"
  inhibition [%]: 32
- SMILES REPRESENTATION: "Clc1nnc(NCCc2c[nH]cn2)c2cc3ccccc3cc12"
  inhibition [%]: 50

* * *

- METHOD SUMMARY: Toxicity in african green monkey Vero cells after 72 hrs
- Format: cell-based
- DETAILS: African green monkey (Chlorocebus sabaeus)
QUANTITY: IC50 at 72 h (µM)

- SMILES REPRESENTATION: "Clc1nnc(NCCc2c[nH]cn2)c2cc3ccccc3cc12"
  QUANTITY: "IC50 at 72 h"
  RESULT UNIT: "µM"
  VALUE OBSERVED: 213
- SMILES REPRESENTATION: "c1ccc2cc3c(NCCCn4ccnc4)nnc(NCCCn4ccnc4)c3cc2c1"
  QUANTITY: "IC50 at 72 h"
  RESULT UNIT: "µM"
  VALUE OBSERVED: 69.3
- SMILES REPRESENTATION: "c1ccc2cc3c(NCCc4cnc[nH]4)nnc(NCCc4cnc[nH]4)c3cc2c1"
  QUANTITY: "IC50 at 72 h"
  RESULT UNIT: "µM"
  VALUE OBSERVED: 88.7
- SMILES REPRESENTATION: "Clc1nnc(NCCCn2ccnc2)c2cc3ccccc3cc12"
  QUANTITY: "IC50 at 72 h"
  RESULT UNIT: "µM"
  VALUE OBSERVED: 146

* * *

- System: Trypanosoma cruzi
- METHOD SUMMARY: Antiparasitic activity against Trypanosoma cruzi epimastigotes after 24 hrs
- Assay type: functional, organism-based
pIC50: −log10 of the molar value.
QUANTITY: pIC50

- SMILES REPRESENTATION: "Clc1nnc(NCCc2c[nH]cn2)c2cc3ccccc3cc12"
  VALUE OBSERVED: 3.96
- SMILES REPRESENTATION: "c1ccc2cc3c(NCCc4c[nH]cn4)nnc(NCCc4c[nH]cn4)c3cc2c1"
  VALUE OBSERVED: 4.21
- SMILES REPRESENTATION: "Clc1nnc(NCCCn2ccnc2)c2cc3ccccc3cc12"
  VALUE OBSERVED: 4.29
- SMILES REPRESENTATION: "c1ccc2cc3c(NCCCn4ccnc4)nnc(NCCCn4ccnc4)c3cc2c1"
  VALUE OBSERVED: 4.27

* * *

Quick reference for inhibition among some compounds
- TARGET OR SYSTEM: Superoxide dismutase [Cu-Zn] (Homo sapiens) (UniProt P00441)
- Sequence (P00441 whole entry): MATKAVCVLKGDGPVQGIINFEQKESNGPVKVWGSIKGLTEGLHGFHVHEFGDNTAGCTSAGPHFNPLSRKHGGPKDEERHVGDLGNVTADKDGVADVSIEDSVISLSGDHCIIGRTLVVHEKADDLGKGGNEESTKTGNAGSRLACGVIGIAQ
- METHOD SUMMARY: inhibition of CuZn-SOD in human erythrocytes at 25 uM
- Format: cell-based

- SMILES REPRESENTATION: "Clc1nnc(NCCCn2ccnc2)c2cc3ccccc3cc12"
  inhibition: "22%"
- SMILES REPRESENTATION: "Clc1nnc(NCCc2c[nH]cn2)c2cc3ccccc3cc12"
  inhibition: "0%"
- SMILES REPRESENTATION: "c1ccc2cc3c(NCCCn4ccnc4)nnc(NCCCn4ccnc4)c3cc2c1"
  inhibition: "12%"
- SMILES REPRESENTATION: "c1ccc2cc3c(NCCc4c[nH]cn4)nnc(NCCc4c[nH]cn4)c3cc2c1"
  inhibition: "5%"

* * *

Reported inhibition values are given for each entry in this list.
- Tested on: Trypanosoma cruzi
- METHOD SUMMARY: Inhibition of Iron superoxide dismutase in Trypanosoma cruzi epimastigotes at 125 uM

- SMILES REPRESENTATION: "c1ccc2cc3c(NCCCn4ccnc4)nnc(NCCCn4ccnc4)c3cc2c1"
  inhibition, %: 100
- SMILES REPRESENTATION: "c1ccc2cc3c(NCCc4c[nH]cn4)nnc(NCCc4c[nH]cn4)c3cc2c1"
  inhibition, %: 86
- SMILES REPRESENTATION: "Clc1nnc(NCCc2c[nH]cn2)c2cc3ccccc3cc12"
  inhibition, %: 100
- SMILES REPRESENTATION: "Clc1nnc(NCCCn2ccnc2)c2cc3ccccc3cc12"
  inhibition, %: 94

* * *

- TARGET OR SYSTEM: UniProt P00441
- METHOD SUMMARY: inhibition of CuZn-SOD in human erythrocytes at 2.5 uM
- Format: cell-based
// reported inhibition per item

- SMILES REPRESENTATION: "c1ccc2cc3c(NCCCn4ccnc4)nnc(NCCCn4ccnc4)c3cc2c1"
  TARGET OR SYSTEM: "UniProt P00441"
  RESULT UNIT: "%"
  inhibition: 2
- SMILES REPRESENTATION: "Clc1nnc(NCCc2c[nH]cn2)c2cc3ccccc3cc12"
  TARGET OR SYSTEM: "UniProt P00441"
  RESULT UNIT: "%"
  inhibition: 0
- SMILES REPRESENTATION: "Clc1nnc(NCCCn2ccnc2)c2cc3ccccc3cc12"
  TARGET OR SYSTEM: "UniProt P00441"
  RESULT UNIT: "%"
  inhibition: 7
- SMILES REPRESENTATION: "c1ccc2cc3c(NCCc4c[nH]cn4)nnc(NCCc4c[nH]cn4)c3cc2c1"
  TARGET OR SYSTEM: "UniProt P00441"
  RESULT UNIT: "%"
  inhibition: 0

* * *

- Tested on: Trypanosoma cruzi
- METHOD SUMMARY: Antiparasitic activity against Trypanosoma cruzi in Vero cells assessed as reduction of infection rate at 10 uM relative to control
- Assay type: functional
- Set-up: scale not given: the % may be the effect or the level left
QUANTITY: Activity (%)

- SMILES REPRESENTATION: "Clc1nnc(NCCCn2ccnc2)c2cc3ccccc3cc12"
  QUANTITY: "Activity"
  READOUT RELATION: "="
  VALUE OBSERVED: 74
- SMILES REPRESENTATION: "c1ccc2cc3c(NCCCn4ccnc4)nnc(NCCCn4ccnc4)c3cc2c1"
  QUANTITY: "Activity"
  READOUT RELATION: "="
  VALUE OBSERVED: 84
- SMILES REPRESENTATION: "Clc1nnc(NCCc2c[nH]cn2)c2cc3ccccc3cc12"
  QUANTITY: "Activity"
  READOUT RELATION: "="
  VALUE OBSERVED: 81
- SMILES REPRESENTATION: "c1ccc2cc3c(NCCc4c[nH]cn4)nnc(NCCc4c[nH]cn4)c3cc2c1"
  QUANTITY: "Activity"
  READOUT RELATION: ">"
  VALUE OBSERVED: 50
